# Hemolytic rate, 50 μg/mL per record follows
# Tested on: sheep red blood cells;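 note: hemolysis expressed in % from supernatant absorbance, with PBS-treated cells as 0% baseline and melittin as 100%, peptide mixed 1:1 with an 8% v/v erythrocyte suspension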
# RUN_CONDITIONS: 50 μg/mL peptide; sheep red blood cells in PBS, 37°C, 1 h, OD576, relative to melittin; mean ± SD, three repeats
Where a SMILES comes first, the peptide text is derived from it.
Output spec: scalar in %, unitless text.

The cases that follow already have their Hemolytic rate, 50 μg/mL on record.
MOLECULE	VALUE_UNIT	Hemolytic rate, 50 μg/mL
CC[C@H](C)[C@H](NC(=O)[C@H](CCCNC(=N)N)NC(=O)[C@H](CCCNC(=N)N)NC(=O)[C@@H](Cc1ccccc1)NC(=O)[C@H](CC(C)C)NC(=O)[C@H](CCCNC(=N)N)NC(=O)[C@@H](N)CCCNC(=N)N)C(=O)N[C@@H](CC(C)C)C(=O)N[C@@H](CCCNC(=N)N)C(=O)N[C@@H](Cc1c[nH]c2ccccc12)C(=O)N[C@@H](CC(C)C)C(N)=O [RW-BP100-4D] (HELM PEPTIDE1{R.R.L.[dF].R.R.I.L.R.W.L.[am]}$$$$V2.0)	%	0.11
CC[C@H](C)[C@H](NC(=O)[C@H](CCCNC(=N)N)NC(=O)[C@@H](CCCNC(=N)N)NC(=O)[C@H](Cc1ccccc1)NC(=O)[C@H](CC(C)C)NC(=O)[C@H](CCCNC(=N)N)NC(=O)[C@@H](N)CCCNC(=N)N)C(=O)N[C@@H](CC(C)C)C(=O)N[C@@H](CCCNC(=N)N)C(=O)N[C@@H](Cc1c[nH]c2ccccc12)C(=O)N[C@@H](CC(C)C)C(N)=O [RW-BP100-5D] (HELM PEPTIDE1{R.R.L.F.[dR].R.I.L.R.W.L.[am]}$$$$V2.0)	%	1.26

Request the reported Hemolytic rate, 50 μg/mL associated with CC[C@H](C)[C@H](NC(=O)[C@H](CCCNC(=N)N)NC(=O)[C@H](CCCNC(=N)N)NC(=O)[C@H](Cc1ccccc1)NC(=O)[C@H](CC(C)C)NC(=O)[C@H](CCCNC(=N)N)NC(=O)[C@@H](N)CCCNC(=N)N)C(=O)N[C@@H](CC(C)C)C(=O)N[C@@H](CCCNC(=N)N)C(=O)N[C@@H](Cc1c[nH]c2ccccc12)C(=O)N[C@H](CC(C)C)C(N)=O [RW-BP100-11D] (HELM PEPTIDE1{R.R.L.F.R.R.I.L.R.W.[dL].[am]}$$$$V2.0)
0.65
